Target: lethal factor (LF) (Bacillus anthracis, UniProt P15917)
Sequence (P15917 34-809 limits assumed): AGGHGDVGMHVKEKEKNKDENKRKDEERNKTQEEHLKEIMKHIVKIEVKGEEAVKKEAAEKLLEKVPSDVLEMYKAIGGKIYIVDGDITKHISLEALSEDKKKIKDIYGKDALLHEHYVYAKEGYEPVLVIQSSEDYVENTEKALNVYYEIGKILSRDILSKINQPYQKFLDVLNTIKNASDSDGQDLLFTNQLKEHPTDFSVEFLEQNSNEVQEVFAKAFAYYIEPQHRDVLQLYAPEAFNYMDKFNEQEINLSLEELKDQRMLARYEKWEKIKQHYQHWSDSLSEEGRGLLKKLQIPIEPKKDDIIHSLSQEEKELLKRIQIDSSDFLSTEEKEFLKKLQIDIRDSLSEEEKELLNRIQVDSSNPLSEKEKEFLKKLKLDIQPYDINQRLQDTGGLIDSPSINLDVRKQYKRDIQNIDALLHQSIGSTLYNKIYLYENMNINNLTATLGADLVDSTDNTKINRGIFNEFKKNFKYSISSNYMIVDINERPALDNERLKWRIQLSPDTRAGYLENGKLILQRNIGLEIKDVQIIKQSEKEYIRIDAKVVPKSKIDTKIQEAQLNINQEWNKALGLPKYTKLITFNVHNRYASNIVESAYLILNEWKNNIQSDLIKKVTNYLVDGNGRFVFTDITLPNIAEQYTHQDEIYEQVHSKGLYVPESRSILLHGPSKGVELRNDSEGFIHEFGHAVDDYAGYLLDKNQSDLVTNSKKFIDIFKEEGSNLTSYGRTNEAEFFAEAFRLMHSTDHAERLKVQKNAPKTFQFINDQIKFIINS
measured-endpoint: IC50

>  <smiles-data>
O=[N+]([O-])c1cnc(Sc2nc3ccccc3s2)s1

>  <IC50>
> 100 µM

$$$$

Consider the record given below.
# assay system lethal factor (LF) (Bacillus anthracis, UniProt P15917): give IC50 of COc1ccc2sc(Sc3ncc([N+](=O)[O-])s3)nc2c1
> 100 µM

---

Biological target: JNK (Homo sapiens)
Sequence (P45983 whole entry): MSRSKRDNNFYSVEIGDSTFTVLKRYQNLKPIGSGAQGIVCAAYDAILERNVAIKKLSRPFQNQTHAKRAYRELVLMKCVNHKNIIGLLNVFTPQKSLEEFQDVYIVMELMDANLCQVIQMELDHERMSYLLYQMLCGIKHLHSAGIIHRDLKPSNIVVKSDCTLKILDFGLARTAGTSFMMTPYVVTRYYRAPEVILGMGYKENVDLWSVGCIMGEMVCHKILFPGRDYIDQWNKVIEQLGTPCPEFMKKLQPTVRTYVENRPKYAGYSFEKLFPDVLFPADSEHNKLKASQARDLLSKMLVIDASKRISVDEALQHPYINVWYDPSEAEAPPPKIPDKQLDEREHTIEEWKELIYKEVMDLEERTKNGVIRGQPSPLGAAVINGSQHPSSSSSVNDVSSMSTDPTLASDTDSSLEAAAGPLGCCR
Experiment: LanthaScreen kinase activity assay
Assay type: biochemical
measured-endpoint: activity in kinase assay / JNK inhibition

>  <smiles-data>
O=[N+]([O-])c1cnc(Sc2nc3cc(Cl)ccc3s2)s1

>  <result>
inactive

$$$$
>  <smiles-data>
CCOc1ccc2nc(Sc3ncc([N+](=O)[O-])s3)sc2c1

>  <result>
inactive

$$$$
>  <smiles-data>
O=[N+]([O-])c1cnc(Sc2nc3ccc(Cl)cc3s2)s1

>  <result>
inactive

$$$$
